B1: Hairpin Ribozyme (parent)
chain: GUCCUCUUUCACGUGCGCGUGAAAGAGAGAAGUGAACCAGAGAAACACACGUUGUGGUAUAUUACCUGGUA

Variants of: B1
Assay: self-cleavage, relative activity (ratio to wild type); higher = more cleavage; co-transcriptional
assay_readout: self-cleavage
Just the number, please.

Query: Bench note: what self-cleavage did G27U U70G show?
Response: 0.228

Query: Bench note: what self-cleavage did A23C G57A show?
Response: 0.196

Query: Bench note: what self-cleavage did C6A G68U show?
Response: 0.181

Query: Bench note: what self-cleavage did A24U G54C show?
Response: 0.423

Query: Bench note: what self-cleavage did G1A G21U show?
Response: 0.127

Query: Bench note: what self-cleavage did U8G A59G show?
Response: 0.121

Query: Bench note: what self-cleavage did U58G U62A show?
Response: 0.232

Query: Bench note: what self-cleavage did A36G A44C show?
Response: 0.0853

Query: Bench note: what self-cleavage did A11C U63C show?
Response: 0.141

Query: Bench note: what self-cleavage did U7A A28U show?
Response: 0.58

Query: Bench note: what self-cleavage did U5A A71G show?
Response: 0.264

Query: Bench note: what self-cleavage did A47C U62A show?
Response: 0.195

Query: Bench note: what self-cleavage did C10A G19A show?
Response: 0.761

Query: Bench note: what self-cleavage did A11G A28G show?
Response: 1.11

Query: Bench note: what self-cleavage did C4G A23G show?
Response: 0.25

Query: Bench note: what self-cleavage did G42C U55C show?
Response: 0.158

Query: Bench note: what self-cleavage did U20A C37G show?
Response: 0.375

Query: Bench note: what self-cleavage did C6A C18A show?
Response: 0.649

Query: Bench note: what self-cleavage did C12A G29U show?
Response: 0.201

Query: Bench note: what self-cleavage did A61U C66U show?
Response: 0.176

Query: Bench note: what self-cleavage did A11G U58C show?
Response: 0.81

Query: Bench note: what self-cleavage did G32U G51A show?
Response: 0.179

Query: Bench note: what self-cleavage did U33A A39C show?
Response: 0.105

Query: Bench note: what self-cleavage did C4G U62A show?
Response: 0.191

Query: Bench note: what self-cleavage did G57U U62G show?
Response: 0.176

Query: Bench note: what self-cleavage did G21A G29U show?
Response: 0.186

Query: Bench note: what self-cleavage did G32A A59C show?
Response: 0.133

Query: Bench note: what self-cleavage did U2C C4A show?
Response: 0.1

Query: Bench note: what self-cleavage did G40A U55A show?
Response: 0.157

Query: Bench note: what self-cleavage did C38G G54U show?
Response: 0.0948

Query: Bench note: what self-cleavage did G1U U7C show?
Response: 0.0995

Query: Bench note: what self-cleavage did G25U A71U show?
Response: 0.575

Query: Bench note: what self-cleavage did G1C U70A show?
Response: 0.208

Query: Bench note: what self-cleavage did G40C G56A show?
Response: 0.107

Query: Bench note: what self-cleavage did U5G A64G show?
Response: 0.177

Query: Bench note: what self-cleavage did G32A A36U show?
Response: 0.111

Query: Bench note: what self-cleavage did U7C G15C show?
Response: 0.948

Query: Bench note: what self-cleavage did G40A A49U show?
Response: 0.0787

Query: Bench note: what self-cleavage did C4U U70G show?
Response: 0.214

Query: Bench note: what self-cleavage did G17U A24C show?
Response: 0.848

Query: Bench note: what self-cleavage did G29U U53A show?
Response: 0.103

Query: Bench note: what self-cleavage did U14A G25A show?
Response: 0.56

Query: Bench note: what self-cleavage did U53A G54A show?
Response: 0.68

Query: Bench note: what self-cleavage did A11U A39C show?
Response: 0.495

Query: Bench note: what self-cleavage did C4U G42U show?
Response: 0.129

Query: Bench note: what self-cleavage did A36G A64C show?
Response: 0.17
